Assay: Visible near-infrared absorption spectrum in a tetrahydrofuran solution
Type: physicochemical
property: Molar absorption coefficient at the maximum absorption wavelength (εmax) (M⁻¹ cm⁻¹)
Give a bare numeral; the unit M⁻¹ cm⁻¹ is implied.

Input line: Suppose we examine the molecule CCCCCCc1ccc(C2=CC(=CC3=C([O-])/C(=C/c4cc(-c5ccc(CCCCCC)cc5)[s+]c(-c5ccc(CCCCCC)cc5)c4)C3=O)C=C(c3ccc(CCCCCC)cc3)S2)cc1 [II-3, reference compound] ; what Molar absorption coefficient at the maximum absorption wavelength (εmax) value has been reported?
Output line: 200000

Input line: # repeat for CCCCc1ccc(C2=CC(=CC3=C([O-])/C(=C/c4cc(-c5ccc(CCCC)cc5)[s+]c(-c5ccc(CCCC)cc5)c4)C3=O)C=C(c3ccc(CCCC)cc3)S2)cc1
Output line: 210000

Input line: Next record, please: CC(C)(C)c1ccc(C2=CC(=CC3=C([O-])/C(=C/c4cc(-c5ccc(C(C)(C)C)cc5)[s+]c(-c5ccc(C(C)(C)C)cc5)c4)C3=O)C=C(c3ccc(C(C)(C)C)cc3)S2)cc1
Output line: 269000

Input line: Next molecule: CCc1ccc(C2=CC(=CC3=C([O-])/C(=C/c4cc(-c5ccc(CC)cc5)[s+]c(-c5ccc(CC)cc5)c4)C3=O)C=C(c3ccc(CC)cc3)S2)cc1
Output line: 180000

Input line: Check Cc1ccc(C2=CC(=CC3=C([O-])/C(=C/c4cc(-c5ccc(C)cc5)[s+]c(-c5ccc(C)cc5)c4)C3=O)C=C(c3ccc(C)cc3)S2)cc1 [II-2, reference compound] too.
Output line: 190000

Input line: Do the same for O=C1C(C=C2C=C(c3ccccc3)SC(c3ccccc3)=C2)=C([O-])/C1=C/c1cc(-c2ccccc2)[s+]c(-c2ccccc2)c1 [II-1, reference compound] please
Output line: 207000

Where these numbers come from: patent US8652718B2
